All values here come from the AptaBench aptamer set (doi:10.1093/nar/gkaf219).

Tested on: DNA aptamer or structured DNA CTTACGACTGGGATGTGTTGTTAGTGCTGTCGGATCCGGTCGTAAG
Details: 10 mM Tris-HCl, pH 7.4
Reported endpoint: binding call; also: call rule not given here

CC(=O)Oc1ccc2c3c1O[C@H]1[C@@H](OC(C)=O)C=C[C@H]4[C@@H](C2)N(C)CC[C@@]341: no binding
NCCc1c[nH]c2ccc(O)cc12: no binding
CCOC(=O)c1ccc(N)cc1: no binding
CCCCCc1cc(O)c2c(c1)OC(C)(C)[C@@H]1CCC(C)=C[C@@H]21: no binding

----------
Test system: DNA aptamer or structured DNA GGGACGACGGGATGGTAAGTGGCAGGTCGTTGGAATTTCTACTGTATCGTCGTCCC
Details: 10 mM Tris-HCl, pH 7.4
Reported endpoint: pKd
Recall that pKd is obtained by taking minus log10 of the concentration measured in molar.

Form: compound = `CN[C@@H](C)Cc1ccccc1` ; pKd = 5.36
